ASSAY NAME: protein stability index of a GFP-peptide fusion (yeast GPS) (PSI 1-4); higher = more stable; sorted into four equal gates, so the index is relative within each strain
STUDY CONDITIONS: doa10∆
sequences and their reported protein stability index
MEASUREMENT TYPE: protein stability index

> print(dat)
              sequence.string         measurement.type  result
1   KMYDYEEKEESNLAATK [RPN11]  protein stability index    3.17
2    KLSCIQLNCIDTQFTKL [SRB8]  protein stability index    2.09
3    EEGETSRPLKKVKILEQ [SWI3]  protein stability index    3.01
4    KSLVQYIELLPNADDIR [DIS3]  protein stability index     2.7
5  SSPYAAMLAAQDVAAKC [RPS14B]  protein stability index    2.14
6   GVDAMSVDDLKKLNKNK [RPL1A]  protein stability index    3.33

---

ASSAY NAME: protein stability index of a GFP-peptide fusion (yeast GPS) (PSI 1-4); higher = more stable; sorted into four equal gates, so the index is relative within each strain
STUDY CONDITIONS: pdr5∆
MEASUREMENT TYPE: protein stability index

> print(dat)
                       sequence.string  numeric.value
 1            IVKVFHGAFMDIIWLQR [RRP6]           1.53
 2            GIKLQMQNSKVESVCQK [SMC4]           2.45
 3            PFQLDVADMLTPEYAAE [UBP6]           2.65
 4  EPIKLEPVKEYTFKTSM [YMR129W/POM152]           2.29
 5           KAAAGAGSAALKIIHDT [RPO31]            1.8
 6            TIFSVMVEWLESRSFSP [PRP8]           1.99
 7            KFGACVAQGIMNAGGRN [RPN2]           2.73
 8            ENDTTLVKTKELIKNYI [FAS1]           2.85
 9            GITHFRAGMTHEDEKLI [PRP8]           2.47
10            RSAWNNNNDNDANRNAN [GRR1]           2.65
11            SIQDTSTVAKNVSFVLP [YCG1]           2.92
12  TDYFLPKNYSLHGLRSF [YJL039C/NUP192]           2.13
13            DLIRSESMLHLSIWIKN [IRR1]           2.01
14            RLLITGTPLQNNLHELW [ISW2]           2.61
15            AINIMNRSNDALIKFME [FAS2]           3.45
16    VAADGKLVTYIVKFKQK [YLR335W/NUP2]           2.11

---

ASSAY NAME: protein stability index of a GFP-peptide fusion (yeast GPS) (PSI 1-4); higher = more stable; sorted into four equal gates, so the index is relative within each strain
STUDY CONDITIONS: pdr5∆
Recorded protein stability index values for a group of sequences are listed next.
MEASUREMENT TYPE: protein stability index

> print(dat)
                     sequence.string         measurement.type  numeric.value
 1  QHIKVFKLDKDTSNWEL [YGL100W/SEH1]  protein stability index           3.15
 2          QKCFKLTHRLGGDTCSS [POP1]  protein stability index           1.85
 3          WVTEVLGNDIPHDLIIG [BRR2]  protein stability index           2.95
 4          NRAMEYDALLSINVHSN [RET1]  protein stability index           2.41
 5          DNLLEMSDHSLDKLNCA [RRP6]  protein stability index              3
 6          DKNSGVKSEVDVQVDAE [ITC1]  protein stability index           2.15
 7         PNHNSPVVINLDAKNKV [RPO31]  protein stability index           3.08
 8          LATNSLVEEFMLLANIS [DIS3]  protein stability index            1.7
 9         GDEGYNEDMVRRANFYK [SNF12]  protein stability index           3.36
10         TINGKVNGRTKSNTIPV [GAL11]  protein stability index           2.77
11          ERAARVAAKIAALAGQQ [RPL5]  protein stability index           3.03
12        IVKASNWRLVEVGRVVL [RPL14A]  protein stability index           1.43

---

ASSAY NAME: protein stability index of a GFP-peptide fusion (yeast GPS) (PSI 1-4); higher = more stable; sorted into four equal gates, so the index is relative within each strain
STUDY CONDITIONS: san1∆
MEASUREMENT TYPE: protein stability index

> print(dat)
                       sequence.string  numeric.value
 1  PENTAMFNPLHESYCLP [YMR129W/POM152]           2.66
 2            GEALPNKFHKSIREDIL [SIR2]            2.7
 3            DQKPIEHIKEGSEIAIS [SWI3]           2.87
 4            YDDEQNTSAQHVESDKI [IRR1]           3.06
 5  FVKGISRDIKALQDSLF [YML103C/NUP188]           1.97
 6            EFVHKYLGEGPRMVRDV [RPT3]           3.14
 7           LSQLCAVPLQIVSPQSN [RPO21]            1.9
 8            DIPFFPSSEKPNIRTMS [SSN2]            3.1
 9           NNNPLQQQSSQNTVPNV [GAL11]              3
10            PSIIFIDEVDSIATKRF [RPT3]           2.96
11            VKVQPEGKYIVDVAKDI [RPT6]           3.29
12            FEYSKYRPLTPSSEVYS [RRP6]           2.87
13  ESGEFDFDLFKEVLPDL [YJL039C/NUP192]           3.17
14            TMANILYYPQKPLGTTR [RPB2]           2.27
15           EGNEKLAAVPAAGPASA [RPP2A]           2.17
16           TEAEETSIHSTISILAA [RRP43]           1.77
17            QLLMGDIPELSFFHQSN [RPN3]           2.39
18            DKNSGVKSEVDVQVDAE [ITC1]           1.79
19            LDRISSYTAFSRLTLLL [PRP8]           1.93
20           TKKLIQKTVFDELCKLV [SRP54]           1.25

---

ASSAY NAME: protein stability index of a GFP-peptide fusion (yeast GPS) (PSI 1-4); higher = more stable; sorted into four equal gates, so the index is relative within each strain
STUDY CONDITIONS: san1∆
MEASUREMENT TYPE: protein stability index

> print(dat)
                    sequence.string  result
1  LWELALAFIPNILALNL [YML031W/NDC1]    1.85
2         LTKKYSFKIFVDVLVIS [RRP42]    1.41
3          EDFPIDTWANGETIKSN [SEM1]    3.13
4          QKRNAHGYFLQDKEKID [ITC1]    3.28
5          KSIINSQRPGARILARS [ITC1]    2.45

---

ASSAY NAME: protein stability index of a GFP-peptide fusion (yeast GPS) (PSI 1-4); higher = more stable; sorted into four equal gates, so the index is relative within each strain
STUDY CONDITIONS: ubr1∆
Reported protein stability index by item:
MEASUREMENT TYPE: protein stability index

> print(dat)
                       sequence.string         measurement.type  numeric.value
 1            QQQQQQQQPQPQYNMNM [PGD1]  protein stability index           2.81
 2          RATNCRKRKCGHTNQLR [RPL40A]  protein stability index           3.17
 3    TTDMISVLYQLSTSAFM [YML031W/NDC1]  protein stability index           1.14
 4            LSEATESDLYKLKECPF [RPB2]  protein stability index           2.91
 5            TRIFQALPRKLRRRTAS [POP1]  protein stability index           2.73
 6            TMTYEEVAKRLVELMFI [FAS1]  protein stability index           2.14
 7            TMFTAEQSELLKAQITS [SNF2]  protein stability index           2.49
 8            AAAGAAMIDAGALEEIT [FAS2]  protein stability index           2.73
 9            LSAVAQAESMKFKLLNG [RPS3]  protein stability index           3.09
10            HDELDMNECIADQDMED [ESC2]  protein stability index           2.97
11            GEILLPDIADIPRTFRT [SNF5]  protein stability index           3.05
12            LNKEKLGPLFKKIVDDT [IRR1]  protein stability index           2.94
13  AKSMAFLKEVLSDLSSP [YML103C/NUP188]  protein stability index           2.95
14            TDQLIQNIETRQLANLI [NUT1]  protein stability index           3.01
15            SSPLGFEETKLSTTPTK [SIR4]  protein stability index           2.67
16            SIYDKWTDPNLKSSLAD [RPN1]  protein stability index           3.19
17            MAMNITPRLYTDRSRDF [RPB2]  protein stability index            3.2
18            STPENVPRLFDLVKPKN [SMC4]  protein stability index           2.81
19           IVAKYDPPIIIFINYKQ [PRP28]  protein stability index           1.96
20            KNVGNKSPEQCILRFLQ [SWI3]  protein stability index           1.84
21           MDVDIGCYFEEKRYDDK [CSN12]  protein stability index           3.33
22            YKKSTENESTNYQYKIQ [MED7]  protein stability index           2.59
23            MKRADKFKDMGIRAPKG [RPT5]  protein stability index            3.3
24            NISKSRAKPVTNSSILL [RRP6]  protein stability index           2.38
25            AMSLYHSPFPFNRTKGK [PRP8]  protein stability index           1.98
26          ANATAAESDVAKQLAAL [RPL16A]  protein stability index           3.23
27          AKGLVAYHQKYVDEQSK [RPS16A]  protein stability index           1.11
28            VSSSLYERRFGPYFVGP [PUP3]  protein stability index           2.95
29            PEKTSTELVDGRENFVY [SIR3]  protein stability index              3
30            INDIRDDDIEKQEQEEK [YCG1]  protein stability index           3.12
31    EIYKQLNDRQEEISRLQ [YIL149C/MLP2]  protein stability index           3.38
32            LLPTIKRTICKKCHRLL [RPR2]  protein stability index           2.34
33           CLTMFEDRNESVNIAFA [ECM29]  protein stability index            2.5
34           IEEQGWGGFPLDISVFL [TAF14]  protein stability index           3.33
35            SNTTTHVPEKKSTDLTP [MTR3]  protein stability index           1.31
36            IGIAGAHRVRDLMDEEL [SKI6]  protein stability index           3.07
37           INDAGKAKKLIQSLPPT [RPL38]  protein stability index           2.56
38            QARMMQQQSADHDDSTD [NSL1]  protein stability index           2.76
39           MARGPKKHLKRLAAPHH [RPS4A]  protein stability index           3.05
40            FKATHILDFGPGGASGL [FAS1]  protein stability index           2.96
41            STPDQRKRVYNIKFLSK [ESC2]  protein stability index           2.93
42   LNHILEKSTQLQQKHEL [YGR119C/NUP57]  protein stability index           2.82
43  IVEQDKSMELFYDIRSL [YJL039C/NUP192]  protein stability index           3.16
44            KKLLINKDASLALQRGA [DPB4]  protein stability index           3.06
45           VSQQPLSRGYTCPGLSL [ECM29]  protein stability index           2.93
46            FQLPTTCVSMAPIQLKI [RGR1]  protein stability index           1.67
